Consider the following compounds and their measured pEC50 readings.
# System: human EDG8 (S1PR5) receptor (Homo sapiens, UniProt Q9H228)
# Construct: carries the transgenes human EDG8 (S1PR5) receptor (Acession number NP_110387.1)
# Sequence (Q9H228 whole entry): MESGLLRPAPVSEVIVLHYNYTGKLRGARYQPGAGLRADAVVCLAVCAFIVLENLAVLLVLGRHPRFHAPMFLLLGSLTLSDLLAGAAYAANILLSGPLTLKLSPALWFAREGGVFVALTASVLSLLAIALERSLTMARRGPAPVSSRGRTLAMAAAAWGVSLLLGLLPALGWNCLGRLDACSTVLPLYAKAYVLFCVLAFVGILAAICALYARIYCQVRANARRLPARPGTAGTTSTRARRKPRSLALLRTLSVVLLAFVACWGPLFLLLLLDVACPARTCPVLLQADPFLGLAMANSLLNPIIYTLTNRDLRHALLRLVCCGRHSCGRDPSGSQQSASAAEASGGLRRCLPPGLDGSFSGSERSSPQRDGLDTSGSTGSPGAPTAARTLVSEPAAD
# Assay Procedure: Aequorin assay, agonist potency, CHO-A21-EDG8#12 cells
# Experimental Parameters: agonist mode, aequorin luminescence; read-out: S1P5 EC50 range #
pEC50: −log10 of the molar value.

Illustrative cases are given below, each with its answer.
Compound: COc1cccc(Cl)c1COc1ccc2c(c1)CC1(C2)CN(CC2(C(=O)O)CC2)C1
Observable: pEC50
Endpoint Result: 6.00 to 7.00
--
Compound: CCOc1ccc(COc2ccc3c(c2)CC2(C3)CN(CC3(C(=O)O)CC3)C2)cc1
Observable: pEC50
Endpoint Result: 5.00 to 6.00
--
Compound: O=C(O)C1(CN2CC3(Cc4ccc(OCc5ccc(Cl)cc5)cc4C3)C2)CC1
Observable: pEC50
Endpoint Result: 5.00 to 6.00

Given the compound CCc1cccc(Cl)c1COc1ccc2c(c1)CC1(C2)CN(CC(C)CC(=O)O)C1 (centres unmarked) , what is its reported pEC50?
≥ 8.00

Given the compound O=C(O)CN1CC2(Cc3ccc(OCCc4ccccc4Cl)cc3C2)C1 , what is its reported pEC50?
7.00 to 8.00

Given the compound CC(C)Oc1ccc(C#Cc2ccc3c(c2)CC2(C3)CN(C3CC(C(=O)O)C3)C2)cc1 (centres unmarked) , what is its reported pEC50?
≥ 8.00

Given the compound CC(C)Oc1ccc(CCc2ccc3c(c2)CC2(C3)CN(CC3(C(=O)O)CC3)C2)cn1 , what is its reported pEC50?
5.00 to 6.00

Given the compound CCc1ccc(COc2ccc3c(c2)CC2(C3)CN(CC(=O)O)C2)c(Cl)c1 , what is its reported pEC50?
6.00 to 7.00
